Biological target: T1, PSMA Fab (006 PSMA Fab) (biotinylated (site not stated))
T1 construct: That the same Fab was used in the panning ELISA is inferred; also called Anti-PSMA Fab; anti-PSMA Fab
Assay: clonal phage ELISA on biotinylated anti-PSMA Fab captured on neutravidin, anti-M13-HRP detection
Where no end group is shown, it is not given here.

BINDER	phage binding ELISA signal
YFQMCAPRWMCEGF (cysteine pairing not given here; also: fused to pIII of bacteriophage, Peptide-180 library clone, tested as clonal phage supernatant; not shown: fused to the pIII filament protein of the bacteriophage) [Phage-3423]	1.78
IEPHCVPAWMCTGF (Peptide-180 library clone, tested as clonal phage supernatant; not shown: fused to the pIII filament protein of the bacteriophage) [Phage-3433]	1.76
MTPRCIPSWMCFGM (Peptide-180 library clone, tested as clonal phage supernatant; not shown: fused to the pIII filament protein of the bacteriophage) [Phage-3426]	1.77

Measured values drawn from patent US20260242478A1 for this set.
